# Assay system: CHEK1 (human)
# Assay text: radiometric filter-binding kinase assay
# Assay context: compound 0.1 µM
Readout kind: residual activity (%)

1. O=C(Nc1nc2cc(C(F)(F)F)cc(NC3CC3)n2n1)c1cccnc1 :: 99
2. CN(C)C/C=C/C(=O)Nc1cccc(C(=O)Nc2ccc(Nc3nccc(-c4cccnc4)n3)cc2)c1 :: 74
3. Cc1cc(NC(=O)c2cccc(NC(=O)/C=C/CN(C)C)c2)ccc1Nc1nccc(-c2cccnc2)n1 :: 102
4. NC1(c2ccc(-c3nc4ccn5c(=O)[nH]nc5c4cc3-c3ccccc3)cc2)CCC1 :: 96
5. NC(=O)Nc1ccc2c(c1)/C(=C/c1cc(-c3cccnc3)c[nH]1)C(=O)N2 :: 85
6. CNc1nc(-c2ccc3c(N)n[nH]c3c2)cc(N2C[C@@H](C(=O)NC3CCCCC3)CC[C@H]2C)n1 :: 106
7. Cc1cccc(-c2nn(C(=S)Nc3ccccc3)cc2-c2ccnc3ccccc23)n1 :: 107
8. COc1ccc(-n2ncc3cnc(Nc4cc(OC)c(OC)c(OCCCN5CCN(C)CC5)c4)nc32)cc1 :: 72
9. CCn1c(-c2nonc2N)nc2cncc(CNC3CCNCC3)c21 :: 89
10. COc1cc(O)c2c(c1)/C=C/C[C@H](O)[C@H](O)C(=O)/C=C\C[C@H](C)OC2=O :: 114

a: C/C(=C1/C(=O)Nc2ccc(NC(N)=O)cc21)c1ccc[nH]1
b: CCCCCc1ccc(/C=C/[C@H](O)[C@@H](CO)NC)cc1
c: COc1ccc2c(c1)c1c3c(c4c5ccccc5n(C)c4c1n2CC(O)CN(C)C)C(=O)NC3=O (centres undefined)
d: CNC(=O)C1[C@H]2O[C@@](C)([C@@H]1N)n1c3ccccc3c3c4c(c5c6ccccc6n2c5c31)C(=O)NC4 (some centres undefined)
Form: Sort by [residual activity] Order [ ascending ] Answer by listing the labels in the requested order.
d, a, c, b
(d: 4%, a: 21%, c: 56%, b: 96%)

###

# Assay system: IKBKB (human) (UniProt O14920)
# Sequence (O14920 whole entry, looked up): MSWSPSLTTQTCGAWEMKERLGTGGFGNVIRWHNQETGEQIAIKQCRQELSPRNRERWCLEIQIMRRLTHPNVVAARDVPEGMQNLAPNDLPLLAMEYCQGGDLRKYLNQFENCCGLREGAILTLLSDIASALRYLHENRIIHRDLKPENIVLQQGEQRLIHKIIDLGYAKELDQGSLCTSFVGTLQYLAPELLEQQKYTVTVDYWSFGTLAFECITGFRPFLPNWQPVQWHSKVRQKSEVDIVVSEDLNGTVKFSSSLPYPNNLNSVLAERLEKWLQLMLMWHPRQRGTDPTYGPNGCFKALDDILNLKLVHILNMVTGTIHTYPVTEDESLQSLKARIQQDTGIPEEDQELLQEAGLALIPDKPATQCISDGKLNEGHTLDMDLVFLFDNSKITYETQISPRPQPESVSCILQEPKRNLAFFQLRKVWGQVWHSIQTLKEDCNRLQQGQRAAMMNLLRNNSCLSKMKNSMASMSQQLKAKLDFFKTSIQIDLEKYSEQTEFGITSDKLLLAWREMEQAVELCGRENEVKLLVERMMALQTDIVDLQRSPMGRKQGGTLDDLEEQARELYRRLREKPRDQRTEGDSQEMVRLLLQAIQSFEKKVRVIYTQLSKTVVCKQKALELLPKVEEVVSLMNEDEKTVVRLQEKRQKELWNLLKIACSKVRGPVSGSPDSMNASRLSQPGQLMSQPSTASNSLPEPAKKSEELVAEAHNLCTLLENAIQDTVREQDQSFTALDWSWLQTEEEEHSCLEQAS
# Assay text: radiometric filter-binding kinase assay
# Assay context: compound 1.0 µM
Readout kind: residual activity (%)

1. O=C(NOCC(O)CO)c1ccc(F)c(F)c1Nc1ccc(I)cc1Cl (configuration not stated) :: 78
2. NC(=O)c1cc2c(-c3cccc(-c4ccccc4)c3)cnc(N)c2s1 :: 81
3. O=C(NOC[C@H](O)CO)c1ccc(F)c(F)c1Nc1ccc(I)cc1Cl :: 88
4. Oc1ccc(/C=C/c2cc(O)cc(O)c2)cc1 :: 99
5. COc1cc(O)c2c(c1)[C@H]1OC1C[C@H](O)[C@H](O)C(=O)/C=C\C[C@H](C)OC2=O (some centres not stated) :: 112
6. Oc1ccc2ccccc2c1SSc1c(O)ccc2ccccc12 :: 33

P: CN1C(=O)[C@@H](Cc2c[nH]c3ccccc23)NC1=S
Q: CNC(=O)C1[C@H]2O[C@@](C)([C@@H]1N)n1c3ccccc3c3c4c(c5c6ccccc6n2c5c31)C(=O)NC4 (some centres not stated)
Field: lower residual activity | Options: P / Q Label of pick, please.
Q

###

# Assay system: MARK4 (human)
# Assay text: radiometric filter-binding kinase assay
# Assay context: compound 1.0 µM
Readout kind: residual activity (%)

1) COc1cc(O)c2c(c1)/C=C/C[C@H](O)[C@H](O)C(=O)/C=C\C[C@H](C)OC2=O :: 86
2) c1ccc2c(-c3cnn4cc(-c5ccc(N6CCNCC6)cc5)cnc34)ccnc2c1 :: 58
3) CCCCCc1ccc(/C=C/[C@H](O)[C@@H](CO)NC)cc1 :: 89

1: CNc1nc(-c2ccc3c(N)n[nH]c3c2)cc(N2C[C@@H](C(=O)NC3CCCCC3)CC[C@H]2C)n1
2: NC(=O)c1cc(-c2ccnc(NC3CCCCC3)c2)nc(N2CCNCC2)c1
Which is greater in residual activity, the first item 1 or the second item 2 ? Identify your pick by its label.
1

###

# Assay system: FLT1 (human) (UniProt P17948)
# Sequence (P17948 whole entry, looked up): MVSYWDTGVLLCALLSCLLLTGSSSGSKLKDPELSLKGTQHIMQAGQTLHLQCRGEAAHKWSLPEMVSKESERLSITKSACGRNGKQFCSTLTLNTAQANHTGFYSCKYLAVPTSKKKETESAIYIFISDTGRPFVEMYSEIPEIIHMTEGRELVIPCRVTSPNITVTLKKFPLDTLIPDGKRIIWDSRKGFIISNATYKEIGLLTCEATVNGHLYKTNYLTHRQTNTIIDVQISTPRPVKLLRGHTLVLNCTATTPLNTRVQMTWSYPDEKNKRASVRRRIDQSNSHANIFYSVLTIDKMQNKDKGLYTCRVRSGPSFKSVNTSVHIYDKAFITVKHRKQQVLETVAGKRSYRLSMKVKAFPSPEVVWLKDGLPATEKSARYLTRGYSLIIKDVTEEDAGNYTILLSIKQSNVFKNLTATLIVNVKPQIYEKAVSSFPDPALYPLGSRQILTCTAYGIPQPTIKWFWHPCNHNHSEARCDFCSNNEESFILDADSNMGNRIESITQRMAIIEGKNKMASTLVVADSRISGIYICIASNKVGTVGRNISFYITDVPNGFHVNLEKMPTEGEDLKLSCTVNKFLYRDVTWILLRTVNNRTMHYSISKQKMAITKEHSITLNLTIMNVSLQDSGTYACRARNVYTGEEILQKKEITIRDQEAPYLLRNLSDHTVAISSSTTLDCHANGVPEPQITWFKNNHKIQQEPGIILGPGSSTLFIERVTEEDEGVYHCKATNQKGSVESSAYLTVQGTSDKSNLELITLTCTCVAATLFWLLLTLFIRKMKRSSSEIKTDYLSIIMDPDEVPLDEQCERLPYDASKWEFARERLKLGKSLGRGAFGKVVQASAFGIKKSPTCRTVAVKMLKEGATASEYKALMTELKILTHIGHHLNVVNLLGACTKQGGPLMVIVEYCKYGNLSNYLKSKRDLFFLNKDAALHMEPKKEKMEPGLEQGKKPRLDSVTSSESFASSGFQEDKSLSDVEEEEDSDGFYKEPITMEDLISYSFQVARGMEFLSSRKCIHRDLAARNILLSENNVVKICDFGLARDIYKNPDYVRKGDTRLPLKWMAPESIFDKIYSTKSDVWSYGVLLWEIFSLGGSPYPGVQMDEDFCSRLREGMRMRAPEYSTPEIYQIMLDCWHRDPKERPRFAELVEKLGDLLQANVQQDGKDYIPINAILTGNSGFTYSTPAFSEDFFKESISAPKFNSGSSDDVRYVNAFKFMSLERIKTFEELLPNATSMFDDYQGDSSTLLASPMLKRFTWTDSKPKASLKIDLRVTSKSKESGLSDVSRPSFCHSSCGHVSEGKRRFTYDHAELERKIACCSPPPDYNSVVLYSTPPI
# Assay text: radiometric filter-binding kinase assay
# Assay context: compound 10.0 µM
Readout kind: residual activity (%)

1) N#Cc1c(C2CCNCC2)cc(-c2c(O)cccc2OCC2CC2)nc1N :: 53

P: N#Cc1c(O)c2c(-c3ccc(-c4ccccc4O)cc3)csc2[nH]c1=O
Q: NS(=O)(=O)OC[C@@H]1C[C@@H](n2ccc3c(N[C@H]4CCc5ccccc54)ncnc32)C[C@@H]1O
Which entry has a larger number for residual activity, P or Q ? Answer by quoting the chosen item's label.
Q

###

# Assay system: MAP3K1 (human) (UniProt Q13233)
# Sequence (Q13233 whole entry, looked up): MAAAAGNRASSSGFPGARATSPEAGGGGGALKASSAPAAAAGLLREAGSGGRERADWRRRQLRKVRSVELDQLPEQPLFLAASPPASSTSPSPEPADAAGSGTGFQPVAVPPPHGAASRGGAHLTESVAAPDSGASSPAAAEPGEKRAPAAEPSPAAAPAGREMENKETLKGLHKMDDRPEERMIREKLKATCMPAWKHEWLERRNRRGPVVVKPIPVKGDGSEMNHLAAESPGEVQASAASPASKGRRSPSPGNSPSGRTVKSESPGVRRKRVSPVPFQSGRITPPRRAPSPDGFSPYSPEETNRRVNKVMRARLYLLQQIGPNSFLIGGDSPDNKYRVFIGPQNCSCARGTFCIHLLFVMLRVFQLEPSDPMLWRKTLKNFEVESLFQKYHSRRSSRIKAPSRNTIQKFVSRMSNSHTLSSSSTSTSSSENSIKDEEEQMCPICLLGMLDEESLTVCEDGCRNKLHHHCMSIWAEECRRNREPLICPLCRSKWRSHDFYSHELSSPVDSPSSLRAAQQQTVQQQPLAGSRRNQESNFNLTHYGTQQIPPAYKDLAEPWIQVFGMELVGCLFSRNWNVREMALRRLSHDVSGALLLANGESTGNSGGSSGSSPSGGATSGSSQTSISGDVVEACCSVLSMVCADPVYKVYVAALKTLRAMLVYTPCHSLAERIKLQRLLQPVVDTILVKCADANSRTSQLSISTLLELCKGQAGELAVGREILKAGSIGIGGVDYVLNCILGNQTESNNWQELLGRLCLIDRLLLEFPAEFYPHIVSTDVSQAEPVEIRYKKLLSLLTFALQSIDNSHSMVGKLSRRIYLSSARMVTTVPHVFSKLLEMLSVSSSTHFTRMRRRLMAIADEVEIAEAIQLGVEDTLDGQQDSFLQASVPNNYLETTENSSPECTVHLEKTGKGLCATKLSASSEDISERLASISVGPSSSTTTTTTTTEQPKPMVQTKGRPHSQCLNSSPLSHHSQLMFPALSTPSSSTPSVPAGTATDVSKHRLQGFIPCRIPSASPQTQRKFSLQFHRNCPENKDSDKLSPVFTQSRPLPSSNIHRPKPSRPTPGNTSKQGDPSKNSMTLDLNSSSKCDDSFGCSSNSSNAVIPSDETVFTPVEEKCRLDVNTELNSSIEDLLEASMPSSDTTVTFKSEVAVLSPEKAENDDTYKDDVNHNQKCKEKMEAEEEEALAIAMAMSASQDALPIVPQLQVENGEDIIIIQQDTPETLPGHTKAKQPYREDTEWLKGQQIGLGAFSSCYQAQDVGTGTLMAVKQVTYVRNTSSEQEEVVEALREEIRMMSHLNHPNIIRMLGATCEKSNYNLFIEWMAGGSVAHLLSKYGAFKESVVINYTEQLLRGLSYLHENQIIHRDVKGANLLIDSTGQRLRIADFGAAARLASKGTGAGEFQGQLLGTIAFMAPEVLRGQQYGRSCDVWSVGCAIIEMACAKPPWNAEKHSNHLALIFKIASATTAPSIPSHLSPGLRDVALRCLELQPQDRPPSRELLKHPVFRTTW
# Assay text: radiometric filter-binding kinase assay
# Assay context: compound 0.1 µM
Readout kind: residual activity (%)

Look over these answered cases.
1) O=C(NCCCNc1nc(Nc2cccc(CN3CCOCC3)c2)ncc1C1CC1)C1CCC1 :: 115
2) C=CC(=O)N1CCC[C@@H](n2nc(-c3ccc(Oc4ccccc4)cc3)c3c(N)ncnc32)C1 :: 106
3) c1ccc2c(-c3cnn4cc(-c5ccc(N6CCNCC6)cc5)cnc34)ccnc2c1 :: 90
4) CCCCCc1ccc(/C=C/[C@H](O)[C@@H](CO)NC)cc1 :: 93

I: CNC(=O)C1[C@H]2O[C@@](C)([C@@H]1N)n1c3ccccc3c3c4c(c5c6ccccc6n2c5c31)C(=O)NC4 (stereo partly specified)
II: NC(=O)c1cc(-c2ccnc(NC3CCCCC3)c2)nc(N2CCNCC2)c1
Compare residual activity: is it lower for I or for II ? Please identify the chosen entry by its label.
I

###

# Assay system: STK33 (human) (UniProt Q9BYT3)
# Sequence (Q9BYT3 whole entry, looked up): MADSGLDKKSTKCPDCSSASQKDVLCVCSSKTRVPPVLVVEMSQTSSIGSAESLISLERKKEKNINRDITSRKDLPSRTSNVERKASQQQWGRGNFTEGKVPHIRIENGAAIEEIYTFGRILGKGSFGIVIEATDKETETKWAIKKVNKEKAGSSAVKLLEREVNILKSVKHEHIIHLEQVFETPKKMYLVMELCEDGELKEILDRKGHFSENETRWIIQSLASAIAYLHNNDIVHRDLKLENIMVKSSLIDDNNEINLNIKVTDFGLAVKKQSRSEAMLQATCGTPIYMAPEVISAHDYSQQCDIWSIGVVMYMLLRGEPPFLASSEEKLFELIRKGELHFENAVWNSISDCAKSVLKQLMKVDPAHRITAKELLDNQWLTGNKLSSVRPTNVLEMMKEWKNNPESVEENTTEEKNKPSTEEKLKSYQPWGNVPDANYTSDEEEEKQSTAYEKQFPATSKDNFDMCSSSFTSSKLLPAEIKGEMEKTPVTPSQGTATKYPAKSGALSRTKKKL
# Assay text: radiometric filter-binding kinase assay
# Assay context: compound 1.0 µM
Readout kind: residual activity (%)

Known results for compounds:
1) NC(=O)c1c(NC(=O)C2CC2)sc2c1CCCC2 :: 87
2) CCn1c(-c2nonc2N)nc2cncc(CNC3CCNCC3)c21 :: 106

1: COc1cc(C(=O)N2CCOCC2)c(F)cc1Nc1ncc(C(F)(F)F)c(NC2CC2)n1
2: C=CC(=O)N1CCC[C@@H](n2nc(-c3ccc(Oc4ccccc4)cc3)c3c(N)ncnc32)C1
Which item exceeds the other in residual activity, 1 or 2 ? Mark your answer with the label of the selected entry.
2

###

# Assay system: PRKCZ (human) (UniProt Q05513)
# Sequence (Q05513 whole entry, looked up): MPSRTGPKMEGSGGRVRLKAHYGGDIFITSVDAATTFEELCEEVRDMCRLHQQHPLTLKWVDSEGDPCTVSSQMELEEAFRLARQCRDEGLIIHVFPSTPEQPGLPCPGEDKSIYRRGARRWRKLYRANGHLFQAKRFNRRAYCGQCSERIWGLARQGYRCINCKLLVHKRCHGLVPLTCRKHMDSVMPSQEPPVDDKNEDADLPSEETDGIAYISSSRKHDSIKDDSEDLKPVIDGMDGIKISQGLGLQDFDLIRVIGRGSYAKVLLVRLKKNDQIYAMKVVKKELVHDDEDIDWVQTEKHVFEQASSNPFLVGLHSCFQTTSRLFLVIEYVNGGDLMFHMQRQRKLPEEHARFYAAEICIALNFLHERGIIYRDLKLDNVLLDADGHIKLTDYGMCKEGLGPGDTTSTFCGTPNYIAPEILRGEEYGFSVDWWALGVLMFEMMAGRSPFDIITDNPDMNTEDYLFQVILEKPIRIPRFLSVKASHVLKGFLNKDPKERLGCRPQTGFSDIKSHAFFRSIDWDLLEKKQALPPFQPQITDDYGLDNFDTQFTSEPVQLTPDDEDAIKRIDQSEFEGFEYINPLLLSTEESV
# Assay text: radiometric filter-binding kinase assay
# Assay context: compound 0.1 µM
Readout kind: residual activity (%)

1. CNc1nc(-c2ccc3c(N)n[nH]c3c2)cc(N2C[C@@H](C(=O)NC3CCCCC3)CC[C@H]2C)n1 :: 105
2. CCn1c(-c2nonc2N)nc2cncc(CNC3CCNCC3)c21 :: 94
3. O=C(N[C@@H](COc1ccc2[nH]c(=O)[nH]c2c1)c1ccccc1)c1cccn(Cc2ccc(F)c(F)c2)c1=O :: 104
4. CN(C)C/C=C/C(=O)Nc1cccc(C(=O)Nc2ccc(Nc3nccc(-c4cccnc4)n3)cc2)c1 :: 112
5. CCCCCc1ccc(/C=C/[C@H](O)[C@@H](CO)NC)cc1 :: 106
6. c1ccc2c(-c3cnn4cc(-c5ccc(N6CCNCC6)cc5)cnc34)ccnc2c1 :: 88
7. COc1ccc(N(C(=O)Nc2c(C)cccc2C)c2cc(Nc3ccc(N4CCN(C)CC4)cc3)ncn2)c(OC)c1 :: 104
8. Cc1cc(NC(=O)c2cccc(NC(=O)/C=C/CN(C)C)c2)ccc1Nc1nccc(-c2cccnc2)n1 :: 116
9. COc1ccc2c(c1)c1c3c(c4c5ccccc5n(C)c4c1n2CC(O)CN(C)C)C(=O)NC3=O (stereo unspecified) :: 118
10. COc1cc(O)c2c(c1)/C=C/C[C@H](O)[C@H](O)C(=O)/C=C\C[C@H](C)OC2=O :: 105
11. C/C(=C1/C(=O)Nc2ccc(NC(N)=O)cc21)c1ccc[nH]1 :: 83
12. Cc1cccc(-c2nn(C(=S)Nc3ccccc3)cc2-c2ccnc3ccccc23)n1 :: 98
13. NC1(c2ccc(-c3nc4ccn5c(=O)[nH]nc5c4cc3-c3ccccc3)cc2)CCC1 :: 97
14. Cc1ccc(Sc2cnc(Nc3cccc(Br)n3)s2)cc1C(=O)N1CCN(C(=O)CN)CC1 :: 104
15. Cn1c(=O)c2c(ncn2C)n(C)c1=O :: 95
16. NC(=O)Nc1ccc2c(c1)/C(=C/c1cc(-c3cccnc3)c[nH]1)C(=O)N2 :: 85

###

# Test system: PRKAA1 or PRKAA2 (rat)
# Assay text: radiometric filter-binding kinase assay
# Assay context: compound 0.1 µM; accession and sequence are those of the human protein
Readout kind: residual activity (%)

1) O=C(N[C@@H](COc1ccc2[nH]c(=O)[nH]c2c1)c1ccccc1)c1cccn(Cc2ccc(F)c(F)c2)c1=O :: 97
2) C=CC(=O)N1CCC[C@@H](n2nc(-c3ccc(Oc4ccccc4)cc3)c3c(N)ncnc32)C1 :: 88
3) CCc1cncnc1N1CCN(Cc2nc3cc(C(F)(F)F)ccc3[nH]2)CC1 :: 100
4) CC1=C(CO)C(=O)O[C@@H]([C@@H](C)[C@H]2CC[C@H]3[C@@H]4C[C@H]5O[C@]56[C@@H](O)C=CC(=O)[C@]6(C)C4CC[C@]23C)C1 (some centres not stated) :: 99
5) O=C(Nc1ccccc1-c1cn2c(CN3CCNCC3)csc2n1)c1cnc2ccccc2n1 :: 83

a: NC(=O)c1cc2c(-c3cccc(-c4ccccc4)c3)cnc(N)c2s1
b: Cc1ccc(Sc2cnc(Nc3cccc(Br)n3)s2)cc1C(=O)N1CCN(C(=O)CN)CC1
When their residual activity values are compared, which is larger, a or b ? Please indicate the selected item by its label.
a
